From: ChEMBL document CHEMBL5291721

# Tgt: Prostaglandin G/H synthase 1 (Homo sapiens, UniProt P23219)
# Sequence (P23219 whole entry): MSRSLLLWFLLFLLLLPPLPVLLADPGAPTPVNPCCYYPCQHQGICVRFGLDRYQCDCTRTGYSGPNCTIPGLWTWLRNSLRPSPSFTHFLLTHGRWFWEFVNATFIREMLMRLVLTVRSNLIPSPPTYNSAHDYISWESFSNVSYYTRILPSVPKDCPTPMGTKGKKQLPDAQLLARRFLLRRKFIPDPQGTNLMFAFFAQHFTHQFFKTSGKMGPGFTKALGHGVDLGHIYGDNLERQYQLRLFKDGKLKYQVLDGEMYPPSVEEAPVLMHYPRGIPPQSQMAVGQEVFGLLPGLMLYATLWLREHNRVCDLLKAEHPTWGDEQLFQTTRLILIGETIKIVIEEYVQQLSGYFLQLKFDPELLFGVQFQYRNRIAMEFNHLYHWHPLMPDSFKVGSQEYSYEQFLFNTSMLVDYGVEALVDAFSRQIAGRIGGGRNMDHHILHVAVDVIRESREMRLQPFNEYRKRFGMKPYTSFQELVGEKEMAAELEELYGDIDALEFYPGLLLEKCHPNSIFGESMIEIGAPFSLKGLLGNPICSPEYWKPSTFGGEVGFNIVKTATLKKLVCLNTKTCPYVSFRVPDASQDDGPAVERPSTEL
# Assay type: functional
Readout Type: AC50

compound=CC(=O)c1ccc2c(c1)N(CCCN(C)C)c1ccccc1S2 result="> 30 µM"
compound=O=c1[nH]c(=O)n([C@H]2C[C@H](O)[C@@H](CO)O2)cc1I result="> 30 µM"

Give the measured AC50 for `CCCCCNC(=N)N/N=C/c1c[nH]c2ccc(OC)cc12` 20.4 µM

Please look at this compound and report its AC50: `OC(CCN1CCCCC1)(c1ccccc1)c1ccccc1` > 30 µM

Provide measured AC50 value, entry: `CC(=O)OCC1=C(C(=O)O)N2C(=O)[C@@H](NC(=O)[C@H](N)c3ccccc3)[C@H]2SC1` 5.93 µM

Given the compound `Cc1cn([C@H]2C[C@H](N=[N+]=[N-])[C@@H](CO)O2)c(=O)[nH]c1=O` , write its reported AC50. > 30 µM

Quickly give me recorded AC50 for `Cc1cc(C)c(NC(=O)CN(CC(=O)O)CC(=O)O)c(C)c1Br` > 30 µM

Input `C=CCCCCCCCCC(=O)O` , output reported AC50. > 30 µM

Give AC50 for the following compound: `CC(C)(C)CC(C)(C)c1ccc(O)c(Cc2ccc(Cl)cc2Cl)c1` 2.56 µM

Determine from records and report AC50 for O=C(Oc1ccc2c(c1)CCCN2C(=O)C(Cl)Cl)c1ccco1 [QUINFAMIDE] > 30 µM

Tell me its AC50 given Cc1ccccc1OCC(O)CO (centres undefined) as the entry. > 30 µM

// fetch AC50 given entry CCOc1ccccc1OCC1CNCCO1 (centres undefined) > 30 µM

Return value of AC50 for input CC(C)C[C@H]1C(=O)N2CCC[C@H]2[C@]2(O)O[C@](NC(=O)[C@@H]3C[C@@H]4c5cccc6[nH]cc(c56)C[C@H]4N(C)C3)(C(C)C)C(=O)N12 [DIHYDROERGOCRYPTINE] , no commentary. 18.4 µM

Note AC50 for the compound shown: CC(=O)OCC(=O)[C@@]1(O)CC[C@H]2[C@@H]3CCC4=CC(=O)C=C[C@]4(C)[C@@]3(Cl)[C@@H](Cl)C[C@@]21C [DICHLORISONE ACETATE] > 30 µM

* * *

Reported AC50 values for the following compounds.
# Tgt: Histamine H2 receptor (Homo sapiens)
# Sequence (P25021 whole entry): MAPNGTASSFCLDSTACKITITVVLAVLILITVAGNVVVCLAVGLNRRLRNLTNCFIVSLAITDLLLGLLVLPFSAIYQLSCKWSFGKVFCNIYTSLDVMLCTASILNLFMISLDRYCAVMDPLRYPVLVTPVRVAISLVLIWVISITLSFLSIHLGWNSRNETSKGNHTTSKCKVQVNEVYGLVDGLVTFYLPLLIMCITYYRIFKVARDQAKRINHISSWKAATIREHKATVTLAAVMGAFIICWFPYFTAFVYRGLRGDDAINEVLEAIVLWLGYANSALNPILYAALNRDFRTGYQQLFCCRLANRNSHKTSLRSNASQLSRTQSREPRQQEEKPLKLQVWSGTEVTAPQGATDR

compound="CCCN1C[C@H](CSC)C[C@@H]2c3cccc4[nH]cc(c34)C[C@H]21 [PERGOLIDE]" tgt="Histamine H2 receptor (Homo sapiens)" result="3.77 µM"
compound="CCOc1ccccc1OCC1CNCCO1 (stereo not drawn) [VILOXAZINE]" tgt="Histamine H2 receptor (Homo sapiens)" result="> 10 µM"
compound="Clc1ccccc1C(c1ccccc1)(c1ccccc1)n1ccnc1 [CLOTRIMAZOLE]" tgt="Histamine H2 receptor (Homo sapiens)" result="17.4 µM"

Next compound, AC50 to be filled in.
Fill in: AC50 on Histamine H2 receptor (Homo sapiens), entry CC(C)(C)c1cc(C(C)(C)C)c(NC(=O)c2c[nH]c3ccccc3c2=O)cc1O [IVACAFTOR] > 10 µM

* * *

# Tgt: 5-hydroxytryptamine receptor 2B (Homo sapiens, UniProt P41595)
# Sequence (P41595 whole entry): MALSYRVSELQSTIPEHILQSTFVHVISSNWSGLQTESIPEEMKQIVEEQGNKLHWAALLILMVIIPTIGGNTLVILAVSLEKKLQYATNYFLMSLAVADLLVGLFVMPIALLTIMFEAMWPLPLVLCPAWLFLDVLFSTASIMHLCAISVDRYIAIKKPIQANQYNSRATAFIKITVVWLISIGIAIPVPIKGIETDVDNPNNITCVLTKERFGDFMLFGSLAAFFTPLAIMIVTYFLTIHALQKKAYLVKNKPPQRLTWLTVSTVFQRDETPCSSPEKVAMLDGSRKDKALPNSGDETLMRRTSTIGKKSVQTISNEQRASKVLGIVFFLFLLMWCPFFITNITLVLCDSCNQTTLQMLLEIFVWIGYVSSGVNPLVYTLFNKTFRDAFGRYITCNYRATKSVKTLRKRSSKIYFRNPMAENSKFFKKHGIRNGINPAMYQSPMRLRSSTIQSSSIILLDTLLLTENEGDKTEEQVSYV
# Type: functional, cell-based
Readout Type: AC50

Look up AC50 of O=C(Cc1ccc(-c2ccccc2)cc1)Nc1ccccn1 [DIFENPIRAMIDE] and report it. > 30 µM

State, in one line, measured AC50 of `COC(=O)[C@H]1[C@H]2C[C@@H]3c4[nH]c5cc(OC)ccc5c4CCN3C[C@H]2C[C@@H](OC(=O)/C=C/c2cc(OC)c(OC)c(OC)c2)[C@@H]1OC` > 10 µM

Please list AC50 recorded for the molecule `CS(=O)(=O)c1ccc(C2=C(c3ccccc3)C(=O)OC2)cc1` > 30 µM

Quote AC50 reported for `Clc1ccc2nsnc2c1NC1=NCCN1` please. > 30 µM

Output AC50 of CCCN(CCC)C(=O)C(CCC(=O)O)NC(=O)c1ccccc1 (stereo unspecified) [PROGLUMIDE] > 10 µM

Give the measured AC50 for `CCOC(=O)[C@H](CCc1ccccc1)N[C@@H](C)C(=O)N1C(=O)N(C)C[C@H]1C(=O)O` > 30 µM

* * *

Let's go through some AC50 measurements on Motilin receptor (Homo sapiens, UniProt O43193) together.
Sequence (O43193 whole entry): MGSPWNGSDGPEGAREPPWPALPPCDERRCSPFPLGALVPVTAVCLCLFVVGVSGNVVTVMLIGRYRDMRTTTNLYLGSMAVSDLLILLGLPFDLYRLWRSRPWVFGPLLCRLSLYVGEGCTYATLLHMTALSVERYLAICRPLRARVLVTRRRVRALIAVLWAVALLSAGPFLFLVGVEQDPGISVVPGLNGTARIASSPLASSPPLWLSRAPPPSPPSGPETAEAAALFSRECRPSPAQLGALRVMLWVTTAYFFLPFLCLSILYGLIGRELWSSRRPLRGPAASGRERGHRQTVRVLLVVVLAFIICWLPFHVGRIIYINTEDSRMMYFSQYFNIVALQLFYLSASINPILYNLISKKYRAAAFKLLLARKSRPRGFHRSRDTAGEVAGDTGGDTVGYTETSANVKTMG

compound=C#C[C@]1(O)CC[C@H]2[C@@H]3[C@H](C)CC4=C(CCC(=O)C4)[C@H]3CC[C@@]21C readout_type=AC50 result="> 30 µM"
compound="CN1C(=O)CCS(=O)(=O)C1c1ccc(Cl)cc1 (stereo unspecified)" readout_type=AC50 result="> 10 µM"
compound=CN(C)/N=N/c1[nH]cnc1C(N)=O readout_type=AC50 result="> 10 µM"
compound=CC[C@H]1[C@@H](O)[C@@H]2[C@H](CC[C@]3(C)[C@@H]([C@H](C)CCC(=O)O)CC[C@@H]23)[C@@]2(C)CC[C@@H](O)C[C@@H]12 readout_type=AC50 result="> 30 µM"

Answer with the recorded AC50 of `Cc1nnc2n1-c1ccc(Cl)cc1C(c1ccccc1Cl)=NC2` only. > 10 µM

Look up and report measured AC50 for this entry: `CCCSc1ccc2nc(NC(=O)OC)[nH]c2c1` > 10 µM

Retrieve AC50 measured for `Nc1nc(Cl)nc2c1ncn2[C@H]1C[C@H](O)[C@@H](CO)O1` and print it. > 30 µM

* * *

AC50 data for 5-hydroxytryptamine receptor 2C (Homo sapiens, UniProt P28335) follow.

Illustrative cases are given below, each with its answer.
compound="C[C@](N)(Cc1ccc(O)c(O)c1)C(=O)O [METHYLDOPA]" readout_type=AC50 result="> 30 µM"
compound="C[C@]12CCC(=O)C=C1CC[C@@H]1[C@@H]2[C@@H](O)C[C@@]2(C)[C@H]1CC[C@]2(O)C(=O)CO [HYDROCORTISONE]" readout_type=AC50 result="> 30 µM"
compound=CC(C)(C)C(=O)Oc1ccc(S(=O)(=O)Nc2ccccc2C(=O)NCC(=O)O)cc1 readout_type=AC50 result="> 30 µM"
compound="COc1ccccc1OCC(O)CN1CCN(CC(=O)Nc2c(C)cccc2C)CC1 (stereo not given) [RANOLAZINE]" readout_type=AC50 result="> 30 µM"
compound="CN(C)CCc1c[nH]c2ccc(C[C@H]3COC(=O)N3)cc12 [ZOLMITRIPTAN]" readout_type=AC50 result="> 30 µM"
compound="Cc1cc(C(C)(C)C)c(O)c(C)c1CC1=NCCN1 [OXYMETAZOLINE]" readout_type=AC50 result="6.8 µM"
compound="CN1CCC(=C2c3ccccc3CCc3sccc32)CC1 [PIZOTYLINE]" readout_type=AC50 result="0.017 µM"
compound="COc1ccccc1N1CCN(CC(O)COc2cccc3ccccc23)CC1 (stereo not given) [NAFTOPIDIL]" readout_type=AC50 result="> 30 µM"

Give reported AC50 for Nc1nc(NC2CC2)c2ncn([C@H]3C=C[C@@H](CO)C3)c2n1 [ABACAVIR] (5-hydroxytryptamine receptor 2C (Homo sapiens, UniProt P28335)) > 30 µM

Please report the measured AC50 for Clc1ccc2nsnc2c1NC1=NCCN1 [TIZANIDINE] tested on 5-hydroxytryptamine receptor 2C (Homo sapiens, UniProt P28335). > 30 µM

* * *

Measured AC50 on UniProt:P31645 follows.
Sequence (P31645 whole entry): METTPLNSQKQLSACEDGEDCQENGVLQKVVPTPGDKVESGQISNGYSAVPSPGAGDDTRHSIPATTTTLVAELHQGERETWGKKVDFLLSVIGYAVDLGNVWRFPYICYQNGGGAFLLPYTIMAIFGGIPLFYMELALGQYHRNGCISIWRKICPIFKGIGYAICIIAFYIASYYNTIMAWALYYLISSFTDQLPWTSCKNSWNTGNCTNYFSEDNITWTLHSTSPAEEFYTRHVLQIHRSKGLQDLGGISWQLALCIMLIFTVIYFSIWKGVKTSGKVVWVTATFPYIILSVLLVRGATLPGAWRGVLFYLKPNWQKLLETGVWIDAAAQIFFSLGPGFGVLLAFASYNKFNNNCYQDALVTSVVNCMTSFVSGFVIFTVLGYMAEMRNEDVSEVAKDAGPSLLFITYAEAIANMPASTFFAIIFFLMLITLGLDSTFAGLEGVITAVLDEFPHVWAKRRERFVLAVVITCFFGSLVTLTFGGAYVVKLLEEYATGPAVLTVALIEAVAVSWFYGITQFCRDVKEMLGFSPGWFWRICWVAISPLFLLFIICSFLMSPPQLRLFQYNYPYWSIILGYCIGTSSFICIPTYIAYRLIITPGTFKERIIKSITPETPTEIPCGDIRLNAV

Some entries whose results are on file:
compound="COc1ccc2c3c1O[C@H]1C(=O)CC[C@@]4(O)[C@@H](C2)N(C)CC[C@]314 [OXYCODONE]" readout_type=AC50 result="> 30 µM"
compound="CCCC(C)C1(CC)C(=O)NC(=O)NC1=O (stereo not drawn) [PENTOBARBITAL]" readout_type=AC50 result="> 10 µM"
compound="COC(=O)C1=C(C)NC(C)=C(C(=O)OC2CCCN(Cc3ccccc3)C2)C1c1cccc([N+](=O)[O-])c1 (stereo not drawn) [BENIDIPINE]" readout_type=AC50 result="> 30 µM"
compound="COC(=O)C1=C(C)NC(C)=C(C(=O)OC(C)(C)CN(C)CCC(c2ccccc2)c2ccccc2)C1c1cccc([N+](=O)[O-])c1 (stereo not drawn) [LERCANIDIPINE]" readout_type=AC50 result="> 30 µM"
compound="O=C(O)C[C@H](O)C[C@H](O)/C=C/c1c(C2CC2)nc2ccccc2c1-c1ccc(F)cc1 [PITAVASTATIN]" readout_type=AC50 result="> 10 µM"
compound="CC(=O)O[C@H]1CC[C@@]2(C)C(=CC[C@@H]3[C@@H]2CC[C@]2(C)C(c4cccnc4)=CC[C@@H]32)C1 [ABIRATERONE ACETATE]" readout_type=AC50 result="> 30 µM"
compound="CCCCCNC(=N)N/N=C/c1c[nH]c2ccc(OC)cc12 [TEGASEROD]" readout_type=AC50 result="3.47 µM"
compound="CC(C)=CCC/C(C)=C/C=C/C(C)=C/C=C/C(C)=C/C=C/C=C(C)/C=C/C=C(C)/C=C/C=C(\\C)CCC=C(C)C [LYCOPENE]" readout_type=AC50 result="> 30 µM"

Look up and report AC50, with UniProt:P31645 as system, for `CC[C@@H](C(N)=O)N1CCCC1=O` > 30 µM

Please report AC50 with UniProt:P31645 for item Cc1c(C(=O)NN2CCCCC2)nn(-c2ccc(Cl)cc2Cl)c1-c1ccc(Cl)cc1 [RIMONABANT] . > 30 µM

Give AC50 for this entry on UniProt:P31645: `CCC(CC)(CC(=O)Nc1cccc(/C=C/c2nc(C3CCC3)cs2)c1)C(=O)O` > 30 µM

Output reported AC50 of the compound CCCc1nc(C(C)(C)O)c(C(=O)OCc2oc(=O)oc2C)n1Cc1ccc(-c2ccccc2-c2nnn[nH]2)cc1 [OLMESARTAN MEDOXOMIL] on UniProt:P31645. > 30 µM

// fetch AC50; item: CC(C)C(=O)c1c(C(C)C)nn2ccccc12 [IBUDILAST] ; system: UniProt:P31645 > 30 µM
